measured target: hTRPML1 (Homo sapiens)
Construct: expressed in transfected cells
Sequence (Q9GZU1 whole entry): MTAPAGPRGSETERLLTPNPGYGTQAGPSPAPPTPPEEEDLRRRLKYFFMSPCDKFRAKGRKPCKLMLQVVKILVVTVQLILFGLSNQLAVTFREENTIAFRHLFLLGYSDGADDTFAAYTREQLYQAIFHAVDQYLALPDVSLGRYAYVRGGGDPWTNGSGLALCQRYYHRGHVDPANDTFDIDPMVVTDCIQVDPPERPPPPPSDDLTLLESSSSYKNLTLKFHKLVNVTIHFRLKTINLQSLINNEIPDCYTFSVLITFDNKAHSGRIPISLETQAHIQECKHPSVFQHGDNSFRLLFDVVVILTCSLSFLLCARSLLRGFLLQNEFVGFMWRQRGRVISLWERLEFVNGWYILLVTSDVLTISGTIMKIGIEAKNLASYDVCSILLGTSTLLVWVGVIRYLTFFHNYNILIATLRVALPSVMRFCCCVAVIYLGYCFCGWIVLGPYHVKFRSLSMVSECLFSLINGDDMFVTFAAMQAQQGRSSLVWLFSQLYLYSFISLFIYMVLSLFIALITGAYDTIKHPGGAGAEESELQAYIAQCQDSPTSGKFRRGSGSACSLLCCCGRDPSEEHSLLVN
assay notes: Cellular TRPML1 assay (FLIPR, GCaMP6f calcium read-out)
Type: cell-based
assay conditions: HEK T-REx/GCaMP6f/TRPML1 cells, FLIPR TETRA, kinetic response over 300 seconds; read-out: hTRPML1 FLIPR pEC50 (converted)
quantity measured: EC50

In [3]: df
Out[3]:
                                   compound         measured_target  quantity_measured  value_observed
0  CN(C)S(=O)(=O)c1ccc(S(=O)(=O)Nc2ccccc2N2CCC[C@H](COc3ccccc3)C2)cc1 (single isomer, unassigned) [Example 35]  hTRPML1 (Homo sapiens)               EC50    1 to 3.16 µM

Task item: May I ask what EC50 has been recorded for CC(C)(C)OC(=O)N1CCN(c2ccccc2NS(=O)(=O)c2ccc(OC(F)(F)F)cc2)CC1 [Example 21] ?
Reply: > 3.16 µM

Task item: May I ask what EC50 has been recorded for CN(C)S(=O)(=O)c1ccc(S(=O)(=O)Nc2ccccc2N2CCOC(C3CC3)C2)cc1 (centres unmarked) [Example 31] ?
Reply: > 3.16 µM

Task item: May I ask what EC50 has been recorded for CN(C(=O)c1ccc(S(=O)(=O)N(C)C)cc1)c1cccc(F)c1N1CCC(Oc2ccccn2)CC1 [Example 9] ?
Reply: > 3.16 µM

Task item: May I ask what EC50 has been recorded for CN(C)S(=O)(=O)c1ccc(S(=O)(=O)Nc2ccccc2N2CCCC(Oc3ccccc3)C2)cc1 (racemic) [Example 28] ?
Reply: 1 to 3.16 µM

Task item: May I ask what EC50 has been recorded for Cc1ccc(S(=O)(=O)Nc2ccccc2N2CCN(C(=O)OC(C)(C)C)CC2)cc1F [Example 19] ?
Reply: 1 to 3.16 µM

Task item: May I ask what EC50 has been recorded for CN(C)S(=O)(=O)c1ccc(C(=O)N(c2ccccc2N2CCC(Oc3ccccc3)CC2)C2CCCC2)cc1 [Example 1] ?
Reply: 1 to 3.16 µM

Task item: May I ask what EC50 has been recorded for Cc1ccc(C)c(S(=O)(=O)Nc2ccccc2N2CCN(C(=O)OC(C)(C)C)CC2)c1 [Example 20] ?
Reply: > 3.16 µM

Task item: May I ask what EC50 has been recorded for CN(C)S(=O)(=O)c1ccc(S(=O)(=O)Nc2cccc(Cl)c2N2CCC(Oc3ccccn3)CC2)cc1 [Example 7] ?
Reply: 1 to 3.16 µM

Task item: May I ask what EC50 has been recorded for C#CCC1CN(c2ccccc2NS(=O)(=O)c2ccc(S(=O)(=O)N(C)C)cc2)CCO1 (centres unmarked) [Example 33] ?
Reply: > 3.16 µM

Task item: May I ask what EC50 has been recorded for CN(C)S(=O)(=O)c1ccc(S(=O)(=O)Nc2cccc(F)c2N2CCC(C)(c3ccccc3)CC2)cc1 [Example 37] ?
Reply: < 1 µM

----------
measured target: hTRPML1 (Homo sapiens)
Construct: expressed in transfected cells
assay notes: Cellular TRPML1 assay (FLIPR, GCaMP6f calcium read-out)
Type: cell-based
assay conditions: HEK T-REx/GCaMP6f/TRPML1 cells, FLIPR TETRA, kinetic response over 300 seconds; read-out: hTRPML1 FLIPR pEC50 (converted)
quantity measured: EC50

Study these solved cases before continuing.
In [3]: df
Out[3]:
                                   compound  value_observed
0  CCS(=O)(=O)c1ccc(S(=O)(=O)Nc2cccc(F)c2N2CCC(Oc3ccccn3)CC2)cc1    1 to 3.16 µM
1  CN(C)S(=O)(=O)c1ccc(S(=O)(=O)Nc2ccccc2N2CCOC(C3CCC3)C2)cc1 (stereo not shown)       > 3.16 µM
2  CN(C)S(=O)(=O)c1ccc(S(=O)(=O)Nc2ccccc2N2CCC[C@@H](OCc3ccccc3)C2)cc1 (single isomer, unassigned)    1 to 3.16 µM
3  CN(C)S(=O)(=O)c1ccc(S(=O)(=O)Nc2cccc(F)c2N2CCC(Oc3ccc(C(F)(F)F)cn3)CC2)cc1          < 1 µM
4  CC(C)(C)CC(=O)N1CCN(c2ccccc2NS(=O)(=O)c2ccc(C(F)(F)F)cc2)CC1       > 3.16 µM
5  CN(C)S(=O)(=O)c1ccc(S(=O)(=O)Nc2cccc(F)c2N2CCC(Oc3ncc(Cl)cc3F)CC2)cc1          < 1 µM
6  CN(C)S(=O)(=O)c1ccc(S(=O)(=O)Nc2ccccc2N2CCCC(COc3ccccc3)C2)cc1 (racemic)    1 to 3.16 µM
7  CN(C)S(=O)(=O)c1ccc(S(=O)(=O)Nc2cc(Cl)ccc2N2CCC(Oc3ccccn3)CC2)cc1    1 to 3.16 µM
8  CN(C)S(=O)(=O)c1ccc(S(=O)(=O)Nc2ccccc2N2CCC(C)(Oc3ccccn3)CC2)cc1       > 3.16 µM
9  O=S(=O)(Nc1cccc(F)c1N1CCC(Oc2ccccn2)CC1)c1ccc(C(F)(F)F)cc1    1 to 3.16 µM

Task item: May I ask what EC50 has been recorded for CN(C)S(=O)(=O)c1ccc(S(=O)(=O)Nc2ccccc2N2CCCCCCC2)cc1 ?
Reply: 1 to 3.16 µM

Task item: May I ask what EC50 has been recorded for CN(C)S(=O)(=O)c1ccc(C(=O)N(c2ccccc2N2CCC(Oc3ccccc3)CC2)C2CCC2)cc1 ?
Reply: 1 to 3.16 µM

Task item: May I ask what EC50 has been recorded for Cc1ccc(S(=O)(=O)Nc2ccccc2N2CCN(C(=O)CC(C)(C)C)CC2)cc1C ?
Reply: > 3.16 µM
